Target: purified PhnO protein (Escherichia coli, UniProt P16691, P2A)
Construct: made in house; host or cells: E. coli JM101 carrying pMON15032 (recA promoter, nalidixic acid induction)
Sequence (P16691 whole entry P2A): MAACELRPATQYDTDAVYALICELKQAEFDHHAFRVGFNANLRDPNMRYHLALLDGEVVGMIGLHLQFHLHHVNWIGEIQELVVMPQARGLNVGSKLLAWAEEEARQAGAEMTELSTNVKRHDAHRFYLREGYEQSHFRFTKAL
Assay: AMPA transacylase acyl-CoA acyl donor specificity, HPLC
Type: biochemical, E. coli
Conditions: acyl donor 0.1 mM; 1 mM acetyl-CoA = 100% reference
VALUE TYPE: % Activity (%)
// note: answer is a bare numeric in %

Study these solved cases before continuing.
C/C=C/C(=O)SCCNC(=O)CCNC(=O)[C@H](O)C(C)(C)COP(=O)(O)OP(=O)(O)OC[C@H]1O[C@@H](n2cnc3c(N)ncnc32)[C@H](O)[C@@H]1OP(=O)(O)O [Crotonoyl-CoA, crotonoyl-CoA]; 0.80
CC(C)(COP(=O)(O)OP(=O)(O)OC[C@H]1O[C@@H](n2cnc3c(N)ncnc32)[C@H](O)[C@@H]1OP(=O)(O)O)[C@@H](O)C(=O)NCCC(=O)NCCSC(=O)CCCC(=O)O [Glutaryl-CoA, glutaryl-CoA]; 0.81

Asked: Which measured % Activity belongs to CC(C)(COP(=O)(O)OP(=O)(O)OC[C@H]1O[C@@H](n2cnc3c(N)ncnc32)[C@H](O)[C@@H]1OP(=O)(O)O)[C@@H](O)C(=O)NCCC(=O)NCCSC(=O)CCC(=O)O [Succinyl-CoA, succinyl-CoA] , tested on purified PhnO protein (Escherichia coli, UniProt P16691, P2A)?
Given back: 5.06

Asked: Which measured % Activity belongs to CCCCC(=O)SCCNC(=O)CCNC(=O)[C@H](O)C(C)(C)COP(=O)(O)OP(=O)(O)OC[C@H]1O[C@@H](n2cnc3c(N)ncnc32)[C@H](O)[C@@H]1OP(=O)(O)O [Valeryl-CoA, n-valeryl-CoA] , tested on purified PhnO protein (Escherichia coli, UniProt P16691, P2A)?
Given back: 0.24
